Values compiled from patent US11413278B2.

system: WI-38 cells; conditions: no H2O2 stress, 10 uM; negative control 0.41% ± 0.23%
measurement type: Percentage of propidium iodide-positive dead cells (no H2O2 stress treatment), at 10 uM

- O=C(Nc1cc(C(F)(F)F)ccc1Cl)c1ccc([N+](=O)[O-])o1 [Gr-1B]: 1.03% ± 0.34%,
- CCc1ccc(Oc2nc3ccccn3c(=O)c2/C=C(\C#N)C(=O)NCc2ccco2)cc1 [Gr-5B]: 0.45% ± 0.15%,
- COc1ccc(C(=O)/C=C/c2ccccc2Br)c(OC)c1 [Gr-4B]: 0.36% ± 0.13%,

Exercise: Find Percentage of propidium iodide-positive dead cells (no H2O2 stress treatment), at 10 uM (WI-38 cells) for the entry [O-][n+]1onc2c3nsnc3c(Br)cc21 [O17]
Key: 0.56% ± 0.25%,

Exercise: Then this compound: CC1C(=O)C(C)C(c2cc(Cl)ccc2O)NC1c1cc(Cl)ccc1O (centres unmarked) [O6]
Key: 0.36% ± 0.10%,

Exercise: Another compound to look at: O=C(Nc1nc(C23CC4CC(CC(C4)C2)C3)cs1)C(c1ccccc1)c1ccccc1 [O10]
Key: 0.54% ± 0.16%,

Exercise: Also O=C(Nc1cccc(Cl)c1)c1ccc([N+](=O)[O-])o1 [Gr-1D] ?
Key: 4.16% ± 1.39%,

Exercise: Next up: NS(=O)(=O)c1ccc(NC(=O)c2ccc([N+](=O)[O-])o2)cc1 [Gr-1A]
Key: 0.79% ± 0.36%,

Exercise: And what about the compound COc1ccc(C(=O)/C=C/c2ccc(F)cc2)c(OC)c1 [Gr-4A] ?
Key: 0.39% ± 0.14%,

Exercise: Same read-out for Cc1cc(C)c(C(=O)/C=C/c2ccccc2F)c(O)n1 [O18] ?
Key: 0.36% ± 0.16%,

Exercise: // query: CCc1ccc(Oc2nc3ccccn3c(=O)c2/C=C(\C#N)C(=O)NC2CCCCC2)cc1 [Gr-5A]
Key: 0.48% ± 0.20%,

* * *

Luminescence signal for ATP measurement, day-1 Average values, listed per item
tested on: WI-38 cells; assay: Long-term effects on cell viability (5 days, ATP; morphology, PI imaging); assay type: cell-based; details: Batch 1; 10 μM; day-1; n = 6; day-0 luminescence = 320956 ± 24708
The answer should be a number; do not append a unit.

* COc1ccc(C(=O)/C=C/c2cccc(Cl)c2)c(OC)c1 | 413360
* NS(=O)(=O)c1ccc(NC(=O)c2ccc([N+](=O)[O-])o2)cc1 | 477461

Exercise: Need Luminescence signal for ATP measurement, day-1 Average, item O=C(c1ccc([N+](=O)[O-])o1)N1CCc2ccccc21
Key: 546070

Exercise: Now this one: Cc1cc(C)c(C(=O)/C=C/c2ccccc2F)c(O)n1
Key: 453443

* * *

# key: entry, value: activity at 10 µM
test system: phosphorylated γH2A.X and TP53BP1; test: DNA damage marker analysis (immuno-staining); settings: Homo sapiens, WI-38, 24 h, read-out: Experiment 2, H2A.X-P DNA damage foci staining (under H2O2 stress treatment), at 10 uM

* CCCC(=O)Nc1ccc(-c2cn3cccc(C)c3n2)cc1 | 113%

Exercise: Query: activity at 10 µM; subject: Cc1cc(N)n(-c2ccccc2C(=O)O)n1
Key: 200%

Exercise: Ok, now NS(=O)(=O)c1ccc(NC(=O)c2ccc([N+](=O)[O-])o2)cc1
Key: 179%

Exercise: Try this compound too: O=C(/C=C/c1cn(-c2ccccc2)nc1-c1cccnc1)c1ccccc1
Key: 136%

Exercise: Do the same for COc1ccc(C(=O)/C=C/c2cccc(Cl)c2)c(OC)c1 please
Key: 150%
